Test system: HCT-116
assay.method.text: cells
run.conditions: Homo sapiens, HCT-116, 72 h
Description: Cytotoxicity against human HCT116 cells assessed as reduction in cell viability after 72 hrs by MTT assay
pIC50: −log10 of the molar value.
Output True for pIC50 not less than 5; output False otherwise.

Consider the following illustrative entries.
compound="C=C1C(=O)O[C@@H]2C3O[C@]3(C)CC/C=C(\\C)CC[C@@H]12 (stereo not given in full)" target_or_system=HCT-116 cat=True
compound="C[C@@H]1C[C@@H]2OC(=O)[C@@H](CNCCCO)[C@H]2C[C@]2(C)[C@@H](O)CC[C@@H]12 (relative stereo)" target_or_system=HCT-116 cat=False
compound="C[C@@H]1C[C@@H]2OC(=O)[C@@H](CN3CCN(C)CC3)[C@H]2C[C@]2(C)[C@@H](O)CC[C@@H]12 (relative stereo)" target_or_system=HCT-116 cat=False
compound="CNC[C@@H]1C(=O)O[C@H]2C[C@@H](C)[C@@H]3CC[C@H](O)[C@@]3(C)C[C@@H]21 (relative stereo)" target_or_system=HCT-116 cat=False
compound="C=C1C(=O)O[C@H]2C[C@@H](C)[C@@H]3CC[C@H](O)[C@@]3(C)C[C@H]12 [PSEUDOGUAIANOLIDE]" target_or_system=HCT-116 cat=True

*Q* Does the reported pIC50 for C[C@@H]1C[C@@H]2OC(=O)[C@@H](CN3CCNCC3)[C@H]2C[C@]2(C)[C@@H](O)CC[C@@H]12 (relative stereo) fall at or above the 5 mark?
*A* False

*Q* Does the reported pIC50 for C[C@@H]1C[C@@H]2OC(=O)[C@@H](CNCCCN(C)C)[C@H]2C[C@]2(C)[C@@H](O)CC[C@@H]12 (relative stereo) fall at or above the 5 mark?
*A* False

*Q* Does the reported pIC50 for CCN(C)C[C@@H]1C(=O)O[C@H]2C[C@@H](C)[C@@H]3CC[C@H](O)[C@@]3(C)C[C@@H]21 (relative stereo) fall at or above the 5 mark?
*A* True

###

Tested on: HCT-116
assay.method.text: cells
run.conditions: Homo sapiens, HCT-116, 72 h
# pIC50 listing for each entry below
Please note pIC50 is a logarithmic value: minus log10 of concentration in mol/L. Answer with that number alone.

In the examples that follow, each entry is paired with its recorded pIC50.
compound="C[C@@H]1C[C@@H]2OC(=O)[C@@H](CNCCN3CCCC3)[C@H]2C[C@]2(C)[C@@H](O)CC[C@@H]12 (relative stereo)" measurement_kind=pIC50 quantitative_result=4.64
compound="COC(CNC[C@@H]1C(=O)O[C@H]2C[C@@H](C)[C@@H]3CC[C@H](O)[C@@]3(C)C[C@@H]21)OC (relative stereo)" measurement_kind=pIC50 quantitative_result=4.56

*Q* Look up pIC50 of C[C@@H]1C[C@@H]2OC(=O)[C@@H](CN3CCOCC3)[C@H]2C[C@]2(C)[C@@H](O)CC[C@@H]12 (relative stereo) and report it.
*A* 4.73

###

assay.method.text: Aqueous solubility of compound at 25 degC
Type: physicochemical
run.conditions: water
measurement.kind: solubility (µg/mL)
API: value field is a number in µg/mL; no unit string.

*Q* Look up solubility of C=C1C(=O)O[C@H]2C[C@@H](C)[C@@H]3CC[C@H](O)[C@@]3(C)C[C@H]12 [PSEUDOGUAIANOLIDE] and report it.
*A* 200

###

# IC50 listing for each entry below
Tested on: HCT-116
assay.method.text: cells
run.conditions: Homo sapiens, HCT-116, 72 h
API: value field is a number in µM; no unit string.

molecule="C[C@@H]1C[C@@H]2OC(=O)[C@@H](CN3CCC(O)CC3)[C@H]2C[C@]2(C)[C@@H](O)CC[C@@H]12 (relative stereo)" target_or_system=HCT-116 quantitative_result=5.36
molecule="C[C@@H]1C[C@@H]2OC(=O)[C@@H](CN(C)C)[C@H]2C[C@]2(C)[C@@H](O)CC[C@@H]12 (relative stereo)" target_or_system=HCT-116 quantitative_result=5.18
molecule="CC(C)NC[C@@H]1C(=O)O[C@H]2C[C@@H](C)[C@@H]3CC[C@H](O)[C@@]3(C)C[C@@H]21 (relative stereo)" target_or_system=HCT-116 quantitative_result=17.8

*Q* Look up IC50 of CCN(CC)C[C@@H]1C(=O)O[C@H]2C[C@@H](C)[C@@H]3CC[C@H](O)[C@@]3(C)C[C@@H]21 (relative stereo) and report it.
*A* 5.46

###

Tested on: HCT-116
assay.method.text: cells
run.conditions: Homo sapiens, HCT-116, 72 h
pIC50: −log10 of the molar value.
measurement.kind: pIC50

molecule="CCCNC[C@@H]1C(=O)O[C@H]2C[C@@H](C)[C@@H]3CC[C@H](O)[C@@]3(C)C[C@@H]21 (relative stereo)" result="< 4.52"
molecule="CC(O)CNC[C@@H]1C(=O)O[C@H]2C[C@@H](C)[C@@H]3CC[C@H](O)[C@@]3(C)C[C@@H]21 (mixture of isomers)" result="< 4.52"

Switching to the query record.
*Q* Look up pIC50 of C[C@@H]1C[C@@H]2OC(=O)[C@@H](CNCCN(C)C)[C@H]2C[C@]2(C)[C@@H](O)CC[C@@H]12 (mixture of isomers) and report it.
*A* < 4.52

All figures here come from ChEMBL document CHEMBL4422667.
